Numbers sourced from patent US11040035B2.

target_or_test_system: UniProt:P35869
experiment_notes: In vitro assay 1: antagonism in human cell line (transactivation assay, kynurenic acid prestimulated)
measurement_conditions: Assay 1: AHR-luc Hum Antagonism IC50 [M], 150 μM kynurenic acid, 20 hours, firefly luciferase
endpoint_label: IC50
Note: a bare number is incomplete; add the unit.

// IC50 lookup, key: O=C(NC(CO)C1CCOC1)c1cc(-c2ccc(OC(F)(F)F)cc2)nn(-c2cccc(F)c2)c1=O (single isomer, unassigned) [Example 178]
1.27e-07 M

I'd like to know its IC50. The compound in question is "C[C@@H](CO)NC(=O)c1cc(-c2ccc(C(F)(F)F)cc2)nn(-c2cccc(F)c2)c1=O"
1.23e-08 M

Which measured IC50 value corresponds to "CC(C)(O)CNC(=O)c1cc(-c2ccc(OC(F)(F)F)cc2)nn(-c2cccc(F)c2)c1=O" ?
9e-08 M

Consider the compound N#Cc1cccc(-n2nc(-c3ccc(Cl)cc3)cc(C(=O)NCC(O)C(F)(F)F)c2=O)c1 (single isomer, unassigned) [Example 364] and give its measured IC50.
5.72e-07 M

I would be grateful if you could share the reported IC50 for O=C(NC(CO)C1CCOC1)c1cc(-c2ccc(Cl)c(F)c2)nn(-c2cccc(F)c2)c1=O (single isomer, unassigned) [Example 292] .
3.09e-07 M

Reported IC50 for CC(C)C(O)CNC(=O)c1cc(-c2ccc(Cl)cc2)nn(-c2cccc(F)c2)c1=O (single isomer, unassigned) [Example 29] : what is it?
9.15e-08 M

----------
target_or_test_system: AHR (Homo sapiens)
Sequence (P35869 11-848): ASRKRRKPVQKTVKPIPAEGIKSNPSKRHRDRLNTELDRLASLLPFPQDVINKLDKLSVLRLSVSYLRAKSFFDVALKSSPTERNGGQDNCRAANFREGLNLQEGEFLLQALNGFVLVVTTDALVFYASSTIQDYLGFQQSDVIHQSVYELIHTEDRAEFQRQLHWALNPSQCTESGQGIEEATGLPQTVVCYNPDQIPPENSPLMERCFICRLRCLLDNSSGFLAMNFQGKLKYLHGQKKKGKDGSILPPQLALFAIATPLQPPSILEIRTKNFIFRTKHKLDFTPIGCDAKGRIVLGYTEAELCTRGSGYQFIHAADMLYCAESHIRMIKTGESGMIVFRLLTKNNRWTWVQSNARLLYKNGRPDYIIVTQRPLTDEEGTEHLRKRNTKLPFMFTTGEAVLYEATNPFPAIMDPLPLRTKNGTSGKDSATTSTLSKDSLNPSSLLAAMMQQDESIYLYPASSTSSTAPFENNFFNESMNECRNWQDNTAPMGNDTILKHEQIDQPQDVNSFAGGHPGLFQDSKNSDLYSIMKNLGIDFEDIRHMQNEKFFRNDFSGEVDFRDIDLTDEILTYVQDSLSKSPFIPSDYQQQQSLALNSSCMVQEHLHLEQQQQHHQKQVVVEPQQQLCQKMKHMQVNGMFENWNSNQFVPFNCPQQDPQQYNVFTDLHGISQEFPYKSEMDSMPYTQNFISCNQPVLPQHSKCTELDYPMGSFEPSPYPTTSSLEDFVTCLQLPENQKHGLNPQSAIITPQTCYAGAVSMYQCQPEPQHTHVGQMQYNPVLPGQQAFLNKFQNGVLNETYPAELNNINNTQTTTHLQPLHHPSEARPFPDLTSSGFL
experiment_notes: In vitro assay 1: antagonism in human cell line (transactivation assay, kynurenic acid prestimulated)
measurement_conditions: Assay 1: AHR-luc Hum Antagonism IC50 [M], 150 μM kynurenic acid, 20 hours, firefly luciferase
endpoint_label: IC50 (M)
Give your result in M as a bare value.

Please look up its IC50: "CC[C@H](CO)NC(=O)c1cc(-c2ccc(C)c(C)c2)nn(-c2cccc(F)c2)c1=O"
7.26e-07

Value lookup for IC50; key = O=C(NC(CO)C(F)(F)F)c1cc(-c2ccc(OC(F)(F)F)cc2)nn(-c2cccc(F)c2)c1=O (single isomer, unassigned) [Example 171]
6.77e-07

Suppose we examine the compound "Cc1ccc(-c2cc(C(=O)N[C@@H](CO)C(C)C)c(=O)n(-c3cccc(F)c3)n2)cc1" ; what IC50 value has been reported?
3.03e-07

Returns the measured IC50 for the input compound. Input: O=C(NC(CO)C(F)(F)F)c1cc(-c2ccc(OC(F)(F)F)cc2)nn(-c2cccc(F)c2)c1=O (centres unmarked) [Example 169]
1.11e-08

For "Cc1ccc(-c2cc(C(=O)N[C@H](C)CO)c(=O)n(-c3cccc(F)c3)n2)cc1" , what is its reported IC50?
1.81e-07

Look up IC50: "C[C@H](O)CNC(=O)c1cc(-c2ccc(Cl)cc2)nn(-c2cccc(F)c2)c1=O"
2.95e-07

Fill blank: measured IC50 of the compound CC(CO)CNC(=O)c1cc(-c2ccc(Cl)cc2)nn(-c2cccc(F)c2)c1=O (racemic) [Example 200] is ____.
7.5e-08

IC50 for CC(O)C(C)NC(=O)c1cc(-c2ccc(OC(F)F)cc2)nn(-c2cccc(F)c2)c1=O (centres unmarked) [Example 140] ?
2.05e-07

----------
target_or_test_system: AHR (Homo sapiens, UniProt P35869)
Sequence (P35869 11-848): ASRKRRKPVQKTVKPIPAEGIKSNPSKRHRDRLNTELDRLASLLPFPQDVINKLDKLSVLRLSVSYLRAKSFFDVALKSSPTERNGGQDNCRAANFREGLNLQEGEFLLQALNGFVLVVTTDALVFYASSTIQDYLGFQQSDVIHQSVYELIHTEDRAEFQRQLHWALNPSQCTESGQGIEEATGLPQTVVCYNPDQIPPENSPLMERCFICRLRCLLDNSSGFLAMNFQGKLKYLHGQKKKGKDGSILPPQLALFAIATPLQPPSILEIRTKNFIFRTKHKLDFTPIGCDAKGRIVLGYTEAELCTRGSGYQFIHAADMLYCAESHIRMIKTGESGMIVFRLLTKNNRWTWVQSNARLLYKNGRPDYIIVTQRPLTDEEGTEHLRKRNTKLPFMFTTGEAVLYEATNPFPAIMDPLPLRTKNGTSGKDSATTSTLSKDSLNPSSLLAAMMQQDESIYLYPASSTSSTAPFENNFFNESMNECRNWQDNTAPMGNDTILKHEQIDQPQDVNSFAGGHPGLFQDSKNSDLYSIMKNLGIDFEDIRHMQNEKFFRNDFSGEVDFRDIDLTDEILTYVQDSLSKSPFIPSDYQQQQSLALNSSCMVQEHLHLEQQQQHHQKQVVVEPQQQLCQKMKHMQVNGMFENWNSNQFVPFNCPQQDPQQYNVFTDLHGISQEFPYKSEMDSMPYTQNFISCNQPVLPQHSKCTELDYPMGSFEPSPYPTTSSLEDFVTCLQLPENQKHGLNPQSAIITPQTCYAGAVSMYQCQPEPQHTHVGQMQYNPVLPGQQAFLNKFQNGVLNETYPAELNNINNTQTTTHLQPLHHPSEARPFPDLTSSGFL
experiment_notes: In vitro assay 2: agonism in human cell line (transactivation assay)
measurement_conditions: read-out: Assay 2: AHR-luc Hum Agonism IC50, no kynurenic acid, 20 hours, firefly luciferase
pIC50: −log10 of the molar value.
endpoint_label: pIC50

What pIC50 value was documented for this compound, COc1ccc(-c2cc(C(=O)NC(CO)C(F)(F)F)c(=O)n(-c3cccc(F)c3)n2)cc1 (single isomer, unassigned) ?
< 4.70

Can you share its pIC50? I mean this compound: O=C(NC(CO)C1CC1)c1cc(-c2ccc(C(F)(F)F)cc2)nn(-c2cccc(F)c2)c1=O (single isomer, unassigned; (+))
< 4.70

Given O=C(N[C@H]1CCCC[C@@H]1O)c1cc(-c2ccc(Cl)cc2)nn(-c2cccc(F)c2)c1=O (single isomer, unassigned) , state its recorded pIC50.
< 4.70

----------
target_or_test_system: AHR (Homo sapiens)
experiment_notes: In vitro assay 1: antagonism in human cell line (transactivation assay, kynurenic acid prestimulated)
measurement_conditions: Assay 1: AHR-luc Hum Antagonism IC50 [M], 150 μM kynurenic acid, 20 hours, firefly luciferase
endpoint_label: IC50 (M)
Numeric answer only, unit M assumed.

So what's the measured IC50 for this one? O=C(NC(CO)C1CCOCC1)c1cc(-c2ccc(Cl)cc2)nn(-c2cccc(F)c2)c1=O (single isomer, unassigned) [Example 150]
2.35e-07

Item COc1ccc(-c2cc(C(=O)NCC(O)C(F)(F)F)c(=O)n(-c3cccc(F)c3)n2)cc1 (single isomer, unassigned) [Example 127] has what recorded IC50?
4.05e-08

IC50 for COCC(O)CNC(=O)c1cc(-c2ccc(Cl)cc2)nn(-c2cccc(F)c2)c1=O (single isomer, unassigned) [Example 32] ?
1.81e-07

Which measured IC50 value corresponds to CC[C@@H](CO)NC(=O)c1cc(-c2ccc(OC(F)(F)F)cc2)nn(-c2cccc(F)c2)c1=O [Example 172] ?
2.63e-08

Need IC50 of CC(CO)CNC(=O)c1cc(-c2ccc(C(F)(F)F)cc2)nn(-c2cccc(F)c2)c1=O (racemic) [Example 245] , thanks.
3.72e-08
